# SYSTEM TESTED: biotinylated His-Avi-TEAD (194-411) (UniProt P28347)
# ASSAY METHOD TEXT: SSM screen, enrichment after two rounds of sorting
Reported enrichment score is given for each of the following binders.
MEASUREMENT LABEL: enrichment score

                                      binder  measured
 0  GSPDEYIIRAKECCKKGDIQCCLRYFEESGDPNVMLICLFCP (designed binder) [E06I variant of SEQ ID NO: 1]     -1.56
 1  GSPDEYIRRAKECCKKGDIQCCLRYFEESGDPNVMLICLFCP (designed binder) [E06R variant of SEQ ID NO: 1]     -1.78
 2  GSPDEHIERAKECCKKGDIQCCLRYFEESGDPNVMLICLFCP (designed binder) [Y04H variant of SEQ ID NO: 1]      -1.9
 3  GSADEYIERAKECCKKGDIQCCLRYFEESGDPNVMLICLFCP (designed binder) [P01A variant of SEQ ID NO: 1]      0.36
 4  GSPDEYIERFKECCKKGDIQCCLRYFEESGDPNVMLICLFCP (designed binder) [A08F variant of SEQ ID NO: 1]     -4.33
 5  GSPIEYIERAKECCKKGDIQCCLRYFEESGDPNVMLICLFCP (designed binder) [D02I variant of SEQ ID NO: 1]      -0.7
 6  GSPDEYIERAKECCKKGSIQCCLRYFEESGDPNVMLICLFCP (designed binder) [D16S variant of SEQ ID NO: 1]     -2.71
 7  GSPDEYPERAKECCKKGDIQCCLRYFEESGDPNVMLICLFCP (designed binder) [I05P variant of SEQ ID NO: 1]     -0.43
 8  GSPDVYIERAKECCKKGDIQCCLRYFEESGDPNVMLICLFCP (designed binder) [E03V variant of SEQ ID NO: 1]     -1.39
 9  GSPDEYIVRAKECCKKGDIQCCLRYFEESGDPNVMLICLFCP (designed binder) [E06V variant of SEQ ID NO: 1]     -1.55
10  GSPDEYIERAKECCPKGDIQCCLRYFEESGDPNVMLICLFCP (designed binder) [K13P variant of SEQ ID NO: 1]     -10.4
11  GSPTEYIERAKECCKKGDIQCCLRYFEESGDPNVMLICLFCP (designed binder) [D02T variant of SEQ ID NO: 1]     -0.52
12  GSPDEYIERAKECCKKEDIQCCLRYFEESGDPNVMLICLFCP (designed binder) [G15E variant of SEQ ID NO: 1]      1.99
13  GSPDEYIERAKECCKKPDIQCCLRYFEESGDPNVMLICLFCP (designed binder) [G15P variant of SEQ ID NO: 1]     -1.25
14  GSPDEYIERAIECCKKGDIQCCLRYFEESGDPNVMLICLFCP (designed binder) [K09I variant of SEQ ID NO: 1]     -3.03
15  GSPDEYDERAKECCKKGDIQCCLRYFEESGDPNVMLICLFCP (designed binder) [I05D variant of SEQ ID NO: 1]     -3.47
16  GSPDEYIERAKFCCKKGDIQCCLRYFEESGDPNVMLICLFCP (designed binder) [E10F variant of SEQ ID NO: 1]      -1.6
17  GSPDEYIERAKECCKKGDSQCCLRYFEESGDPNVMLICLFCP (designed binder) [I17S variant of SEQ ID NO: 1]      -2.1
18  GSPDEYHERAKECCKKGDIQCCLRYFEESGDPNVMLICLFCP (designed binder) [I05H variant of SEQ ID NO: 1]     -2.99
19  GSPDEYIERAKECCRKGDIQCCLRYFEESGDPNVMLICLFCP (designed binder) [K13R variant of SEQ ID NO: 1]     -0.81
20  GSPDEYWERAKECCKKGDIQCCLRYFEESGDPNVMLICLFCP (designed binder) [I05W variant of SEQ ID NO: 1]     -7.46
21  GSPDEYIERAKRCCKKGDIQCCLRYFEESGDPNVMLICLFCP (designed binder) [E10R variant of SEQ ID NO: 1]     -2.84
22  GSPDEYTERAKECCKKGDIQCCLRYFEESGDPNVMLICLFCP (designed binder) [I05T variant of SEQ ID NO: 1]     -1.77
23  GSPDEYIERAKECCLKGDIQCCLRYFEESGDPNVMLICLFCP (designed binder) [K13L variant of SEQ ID NO: 1]     -1.37
